- ASSAYED SYSTEM: mouse monoclonal antibody 6D8 (mouse)
- Sequence (heavy, as listed by the source, chain 1 of 2): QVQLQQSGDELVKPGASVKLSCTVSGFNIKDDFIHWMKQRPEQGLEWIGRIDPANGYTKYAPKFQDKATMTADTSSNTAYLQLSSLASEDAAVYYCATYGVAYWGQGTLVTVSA
- Sequence (light, as listed by the source, chain 2 of 2): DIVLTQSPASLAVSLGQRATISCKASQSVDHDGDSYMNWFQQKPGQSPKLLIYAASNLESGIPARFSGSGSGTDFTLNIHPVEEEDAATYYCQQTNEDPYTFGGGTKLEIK
- PROCEDURE DETAILS: SPR
Lab note: anything with Kd below 20 nM is marked rule met; values at 20 nM or higher are marked rule not met.

[[record]]
binder = "Ac-FINNAYNMSIRRS-NH2 [MSP2_(11-23)]"
category = "rule met"

[[record]]
binder = "Ac-AYNMSIRRS-NH2 [MSP2_(15-23)]"
category = "rule not met"

[[record]]
binder = "Ac-NNAYNMSIRR-NH2 [MSP2_(13-22)]"
category = "rule met"

[[record]]
binder = "Ac-NAYNMSIRR-NH2 [MSP2_(14-22)]"
category = "rule met"

[[record]]
binder = "Ac-NAYNMSIRRS-NH2 [MSP2_(14-23)]"
category = "rule met"

[[record]]
binder = "Ac-AYNMSIRR-NH2 [MSP2_(15-22)]"
category = "rule not met"

